Provenance of the data: patent US10294217B2

Reported fraction unbound at 6 h, 1 μM values follow for various compounds
Method Notes: Protein binding assay (HT dialysis), rat matrices
Type: in vitro ADME
Stated Conditions: pH 7.4, Rat brain homogenate, 37° C., Mean ± SEM, n = 3, read-out: Fu Brain
Observed Property: fraction unbound at 6 h, 1 μM

1. O=C(N[C@H]1CCCC[C@@H]1O)c1cn(Cc2ccnc(Cl)c2)c2cccc(F)c12 [Example 2] = 0.015
2. Cn1cc(Cn2cc(C(=O)N[C@H]3CCCC[C@@H]3O)c3c(F)cccc32)cn1 [Example 1] = 0.166
3. O=C(N[C@H]1CCCC[C@@H]1O)c1cn(Cc2ccnc(Cl)c2)c2c(F)ccc(F)c12 [Example 6] = 0.014

====

Method Notes: Rodent pharmacokinetic study
Type: in vivo, Male Wistar rats
Stated Conditions: male, Wistar, plasma; oral 3 mg/kg vs i.v. 1 mg/kg, rat; read-out: % F (Bioavailability)
// label = criterion met if bioavailability is not less than 70%, otherwise criterion not met

1) O=C(N[C@H]1CCCC[C@@H]1O)c1cn(Cc2ccnc(F)c2)c2c(F)ccc(F)c12 = criterion not met
2) Cl.O=C(N[C@H]1CCNC[C@H]1F)c1cn(Cc2ccnc(F)c2)c2c(F)ccc(F)c12 (single isomer, unassigned; isomer-i) = criterion not met
3) O=C(N[C@H]1CCCC[C@@H]1O)c1cn(Cc2ccnc(F)c2)c2cccc(F)c12 = criterion not met
4) Cn1cc(Cn2cc(C(=O)N[C@H]3CCCC[C@@H]3O)c3c(F)cccc32)cn1 = criterion met
5) O=C(N[C@H]1CCCC[C@@H]1O)c1cn(Cc2cc(F)ncc2F)c2c(F)ccc(F)c12 = criterion not met
6) O=C(N[C@H]1CCCC[C@@H]1O)c1cn(Cc2ccnc(Cl)c2)c2cccc(F)c12 = criterion not met
7) Cn1cc(Cn2cc(C(=O)N[C@H]3CCCC[C@@H]3O)c3c(F)ccc(F)c32)cn1 = criterion met

====

Method Notes: Protein binding assay (HT dialysis), rat matrices
Type: in vitro ADME
Stated Conditions: pH 7.4, Rat plasma, 37° C., Mean ± SEM, n = 3, read-out: Fu Plasma
Method: Unbound fractions of new chemical entities in plasma, brain homogenate and liver microsomes were determined using high-throughput dialysis (HT dialysis). Briefly, dialysis membranes were soaked in deionized water for 20 minutes and then in deionized water with 30% ethanol for 15 minutes and finally in phosphate buffer until use. Membranes were rinsed in phosphate buffer before assembling. The membranes were layered between teflon bars of dialysis assembly. […]
Observed Property: fraction unbound at 6 h, 1 μM

1) Cn1cc(Cn2cc(C(=O)N[C@H]3CCCC[C@@H]3O)c3c(F)ccc(F)c32)cn1 [Example 5] = 0.21
2) O=C(N[C@H]1CCCC[C@@H]1O)c1cn(Cc2ccnc(F)c2)c2cccc(F)c12 [Example 7] = 0.2
3) O=C(N[C@H]1CCCC[C@@H]1O)c1cn(Cc2ccnc(Cl)c2)c2cccc(F)c12 [Example 2] = 0.068
4) Cn1cc(Cn2cc(C(=O)N[C@H]3CCCC[C@@H]3O)c3c(F)cccc32)cn1 [Example 1] = 0.267
5) Cl.O=C(N[C@H]1CCNC[C@H]1F)c1cn(Cc2ccnc(F)c2)c2c(F)ccc(F)c12 (single isomer, unassigned; isomer-i) [Example 22] = 0.315
6) O=C(N[C@H]1CCCC[C@@H]1O)c1cn(Cc2ccnc(F)c2)c2c(F)ccc(F)c12 [Example 8] = 0.089
7) O=C(N[C@H]1CCCC[C@@H]1O)c1cn(Cc2ccnc(Cl)c2)c2c(F)ccc(F)c12 [Example 6] = 0.05

====

Method Notes: Rodent pharmacokinetic study
Assay type: in vivo, Male Wistar rats
Stated Conditions: male, Wistar; oral, 3 mg/kg, rat plasma
Observed Property: log10 of Cmax (log10 of the value in µg/mL)

1) O=C(N[C@H]1CCCC[C@@H]1O)c1cn(Cc2ccnc(F)c2)c2cccc(F)c12 = -0.11
2) O=C(N[C@H]1CCCC[C@@H]1O)c1cn(Cc2ccnc(F)c2)c2c(F)ccc(F)c12 = -0.24
3) Cn1cc(Cn2cc(C(=O)N[C@H]3CCCC[C@@H]3O)c3c(F)ccc(F)c32)cn1 = 0.43
4) Cl.O=C(N[C@H]1CCNC[C@H]1F)c1cn(Cc2ccnc(F)c2)c2c(F)ccc(F)c12 (single isomer, unassigned; isomer-i) = -0.68
5) O=C(N[C@H]1CCCC[C@@H]1O)c1cn(Cc2ccnc(Cl)c2)c2cccc(F)c12 = -0.20
6) O=C(N[C@H]1CCCC[C@@H]1O)c1cn(Cc2cc(F)ncc2F)c2c(F)ccc(F)c12 = -0.47
7) Cn1cc(Cn2cc(C(=O)N[C@H]3CCCC[C@@H]3O)c3c(F)cccc32)cn1 = 0.08

====

Experimental System: human Muscarinic M1 receptor (Homo sapiens (Human))
Method Notes: Allosteric potency EC50 for muscarinic M1 receptor (CHO cells, pCRE-Luc reporter)
Format: cell-based
Stated Conditions: hM1 PAM EC50, in presence of EC20 of acetylcholine; luciferase activity, 4 hours
Observed Property: EC50 (µM)

1) O=C(NC1CCNCC1F)c1cn(Cc2ccnc(F)c2)c2c(F)ccc(F)c12 (single isomer, unassigned; isomer-ii) [Example 23] = 1.07
2) COc1cccc(Cn2cc(C(=O)N[C@H]3CCNC[C@H]3F)c3c(F)cccc32)c1 (single isomer, unassigned; isomer-ii) [Example 36] = 1.35
3) COc1ccc(Cn2cc(C(=O)N[C@H]3CCNC[C@H]3F)c3c(F)ccc(F)c32)cc1 (single isomer, unassigned; isomer-i) [Example 39] = 1.48
4) O=C(N[C@@H]1CCNC[C@H]1F)c1cn(Cc2ccnc(F)c2)c2c(F)ccc(F)c12 (single isomer, unassigned; isomer-ii) [Example 25] = 1.44
5) O=C(N[C@H]1CCNC[C@H]1F)c1cn(Cc2ccc(F)cc2)c2c(F)ccc(F)c12 (single isomer, unassigned; isomer-ii) [Example 32] = 1.59
6) COc1cccc(Cn2cc(C(=O)N[C@H]3CCNC[C@H]3F)c3c(F)cccc32)c1 (single isomer, unassigned; isomer-i) [Example 35] = 1.48

====

Method Notes: Protein binding assay (HT dialysis), rat matrices
Format: in vitro ADME
Stated Conditions: pH 7.4, Rat liver microsomes 0.5 mg/mL, Mean ± SEM, n = 3, read-out: Fu Microsomes
Reported fraction unbound at 6 h, 1 μM values follow for various compounds
Observed Property: fraction unbound at 6 h, 1 μM

1. Cl.O=C(N[C@H]1CCNC[C@H]1F)c1cn(Cc2ccnc(F)c2)c2c(F)ccc(F)c12 (single isomer, unassigned; isomer-i) [Example 22] = 0.902
2. Cn1cc(Cn2cc(C(=O)N[C@H]3CCCC[C@@H]3O)c3c(F)cccc32)cn1 [Example 1] = 0.836
3. O=C(N[C@H]1CCCC[C@@H]1O)c1cn(Cc2ccnc(Cl)c2)c2c(F)ccc(F)c12 [Example 6] = 0.56

====

Method Notes: Protein binding assay (HT dialysis), human matrices
Format: in vitro ADME
Stated Conditions: pH 7.4, Human plasma, 37° C., Mean ± SEM, n = 3, read-out: Fu Plasma
Reported fraction unbound at 6 h, 1 μM values follow for various molecules
Observed Property: fraction unbound at 6 h, 1 μM

1) Cn1cc(Cn2cc(C(=O)N[C@H]3CCCC[C@@H]3O)c3c(F)cccc32)cn1 = 0.197
2) Cl.O=C(N[C@H]1CCNC[C@H]1F)c1cn(Cc2ccnc(F)c2)c2c(F)ccc(F)c12 (single isomer, unassigned; isomer-i) = 0.309
3) O=C(N[C@H]1CCCC[C@@H]1O)c1cn(Cc2ccnc(Cl)c2)c2c(F)ccc(F)c12 = 0.03

====

Experimental System: human Muscarinic M1 receptor (Homo sapiens (Human), UniProt P11229)
Method Notes: Allosteric potency EC50 for muscarinic M1 receptor (CHO cells, pCRE-Luc reporter)
Type: cell-based
Stated Conditions: hM1 PAM EC50, in presence of EC20 of acetylcholine; luciferase activity, 4 hours
pEC50: −log10 of the molar value.
Observed Property: pEC50

1. Cl.O=C(N[C@H]1CCNC[C@H]1F)c1cn(Cc2ccnc(F)c2)c2c(F)ccc(F)c12 (single isomer, unassigned; isomer-i) [Example 22] = 5.83
2. O=C(N[C@H]1CCNC[C@H]1F)c1cn(Cc2ccc(F)cc2)c2c(F)ccc(F)c12 (single isomer, unassigned; isomer-i) [Example 31] = 5.79
3. COc1ccc(Cn2cc(C(=O)N[C@H]3CCNC[C@H]3F)c3c(F)cccc32)cc1 (single isomer, unassigned; isomer-ii) [Example 37] = 5.70
4. O=C(N[C@H]1CCNC[C@H]1F)c1cn(Cc2ccccc2F)c2cccc(F)c12 (single isomer, unassigned; isomer-i) [Example 33] = 5.86
5. O=C(N[C@H]1CCNC[C@H]1F)c1cn(Cc2ccnc(F)c2)c2cccc(F)c12 (single isomer, unassigned; isomer-i) [Example 44] = 5.88
6. O=C(N[C@H]1CCNC[C@H]1F)c1cn(Cc2ccc(Cl)cc2)c2cccc(F)c12 (single isomer, unassigned; isomer-i) [Example 34] = 5.86
7. COc1ccc(Cn2cc(C(=O)N[C@H]3CCNC[C@H]3F)c3c(F)cccc32)cc1 (single isomer, unassigned; isomer-i) [Example 38] = 5.84
8. O=C(N[C@H]1CCNC[C@H]1F)c1cn(Cc2ccc3ncsc3c2)c2cccc(F)c12 (single isomer, unassigned; isomer-i) [Example 45] = 5.93
